System: U251
Test: NCI-60 one-dose screen
Format: cell-based
Conditions: Homo sapiens, U-251; U251, CNS Cancer panel; single dose 10^−5 M; read-out: Growth inhibition %
# inhibition at 10 µM per record follows
Write the number in % without appending the unit.

Recorded inhibition at 10 µM, per entry:
Measured inhibition at 10 µM, COc1ccc2nc3ccccc3c(NCc3ccc(Cl)cc3)c2c1 : 97.5

Lookup result for COc1cccc(CNc2c3ccccc3nc3ccccc23)c1OC ; measured inhibition at 10 µM: 65.5

The value of inhibition at 10 µM measured for the molecule COc1ccccc1CNc1c2ccccc2nc2ccccc12 turned out to be 61.4

Form field inhibition at 10 µM, entry Clc1cccc(CNc2c3ccccc3nc3ccccc23)c1 : 77.3

Given item COc1ccc2nc3ccccc3c(NCc3ccc(F)cc3)c2c1 , the value recorded as its inhibition at 10 µM is 77.9

New cases:
Entry Cc1ccccc1CNc1c2ccccc2nc2ccccc12 — recorded inhibition at 10 µM = 78.7

Form field inhibition at 10 µM, entry COc1ccc2nc3ccccc3c(NCc3ccccc3)c2c1 : 77.1
